FYI, the data here is from ChEMBL document CHEMBL1201862.

Tested on: DU-145
experimental.protocol: NCI tumour cell line growth inhibition, 48 h
The source made the active and inactive calls. Cut-off read from the data, not from the text of the source: active = GI50 up to about 1.1 µM and inactive = higher. Non-standard residues stand in square brackets, D forms with d. Residues, ends and D or L forms follow the SMILES beside them. ξ: configuration not given here. *: point of attachment. NMeF = CN[C@@H](Cc1ccccc1)C(=O)O; NMeN = CN[C@@H](CC(N)=O)C(=O)O; NMeV = CN[C@H](C(=O)O)C(C)C; ξNMeV = CNC(C(=O)O)C(C)C; Boc = CC(C)(C)OC(=O)*; ξNMeA = CNC(C)C(=O)O; ξV = CC(C)C(N)C(=O)O
Catalogue of GI50 readings, one per entry.
assay.readout: GI50

| molecule | reported.measurement |
| --- | --- |
| CCOP(=O)(CCCC(O)CNc1cc(Cl)nc(N)n1)OCC (configuration not stated) | > 100 µM (inactive) |
| Cn1[nH]nn/c1=N\N=C\c1ccccc1 | > 10 µM (inactive) |
| O=c1oc2cc(/N=C/c3ccc4c(c3)OCO4)ccc2c2ccccc12 | > 100 µM (inactive) |
| COc1nc2c(c(=O)n1C)NC(C(O)C(O)CO)C=N2 (configuration not stated) | > 10 µM (inactive) |
| CCCCCC(=O)OCC1(CO)C/C(=C/CC(C(C)C)C(C)C)C(=O)O1 (configuration not stated) | 59.6 µM (inactive) |
| CCCCCCC1OC23OC1CCC2C(O)CCC3O (configuration not stated) | > 100 µM (inactive) |
| C/C(=N/S(=O)(=O)c1ccc(Cl)c(Cl)c1)OCC(C)(C)C | > 100 µM (inactive) |
| CSc1nc(Nc2ccccc2Cl)c2c(N)nn(C)c2n1 | > 100 µM (inactive) |
| N#Cc1c(O)c(C=O)c(=O)n2c1[nH]c1ccccc12 | > 100 µM (inactive) |
| CSCCC(NC(=O)OCc1ccccc1)P(=O)(O)c1ccccc1 (configuration not stated) | > 100 µM (inactive) |
| COc1ccc2c(c1)C(=O)CC(N)C2 (configuration not stated) | > 100 µM (inactive) |
| COC(=O)C(C)N(C)C(=O)[C@H](CC(N)=O)N(C)C(=O)[C@@H]1CCCN1C(=O)[C@H](C(C)C)N(C)C(=O)C(C(C)C)N(C)C(=O)[C@H](Cc1ccccc1)N(C)C(=O)C(NC(=O)OC(C)(C)C)C(C)C (some centres not stated) (Boc-[ξV][NMeF][ξNMeV][NMeV]P[NMeN][ξNMeA]-OMe) | 28.8 µM (inactive) |
| CSc1ncnc2c1ncn2CCC#N | > 100 µM (inactive) |
| N#CCSc1c(-c2ccccc2)c(=O)n(-c2ccccc2)c(=S)n1-c1ccccc1 | > 10 µM (inactive) |
| CC(C)(C)C1=C(Br)C(Br)(C(C)(C)C)OP1(=O)c1ccccc1 (configuration not stated) | > 100 µM (inactive) |
| CC(NNC(=O)CC(=O)N(C(=O)c1ccccc1)c1ccc(Cl)cc1)c1cc2ccccc2oc1=O (configuration not stated) | > 10 µM (inactive) |
| Oc1c(Br)ccc2cccnc12 | 5.4 µM (inactive) |
| C/C=C/C(C#N)(/C=C/c1ccccc1)OP1(=O)OC(c2ccccc2)C(C)N1C (configuration not stated) | 30 µM (inactive) |
| CC1=CP(=O)(c2c(C(C)C)cc(C(C)C)cc2C(C)C)CCC1Cl (configuration not stated) | 19.6 µM (inactive) |
| CSc1nc(Br)nc2c1ncn2C1CC(Oc2ccc(C)cc2)C(COc2ccc(C)cc2)O1 (configuration not stated) | > 100 µM (inactive) |
| O=C(NNC(=O)c1ccccc1O)c1cccc(Br)c1 | 30.2 µM (inactive) |
| Nc1nc(NNc2cccc(F)c2)cc(=O)[nH]1 | 81.3 µM (inactive) |
